TEST TARGET: T1, Cynomolgus CD3εδ Fc heterodimer (Cy CD3ε Fc + CD3δ Fc-HIS) (cynomolgus, UniProt Q95LI5 22-117; Q95LI8 22-100)
T1 construct: range 22-117;range 22-100; Made in HEK 293 cells with a heterologous signal peptide; also called Cy CD3εδ-Fc; cyno CD3εδ Fc; not shown: Fc; Fc followed by HIS tag
T1 sequence (Q95LI5 22-117, stated change not applied, form in doubt, chain 1 of 2): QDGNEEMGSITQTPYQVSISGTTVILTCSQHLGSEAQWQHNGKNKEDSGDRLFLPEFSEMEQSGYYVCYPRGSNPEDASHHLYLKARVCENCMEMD
T1 sequence (Q95LI8 22-100, stated change not applied, form in doubt, chain 2 of 2): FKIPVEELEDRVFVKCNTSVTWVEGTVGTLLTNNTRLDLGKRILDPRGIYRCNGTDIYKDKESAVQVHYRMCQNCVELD
ASSAY INFO: BLI (Octet), Fab monovalent, pH 7.4
Labelling: Kd reported below 9 nM becomes True; at or above becomes False.

For orientation, consider the following solved cases.
[
  {
    "BINDER": "Antibody No. V018 (ADI-76361) Fab (Fab, V domains shown, Fab by papain digestion of the IgG1) VH: QVQLVQSGAEVKKPGASVKVSCKASGFDIKDYYMHWVRQAPGQRLEWMGWIDLEEGNTIYDAKFQGRVTITRDTSASTAYMELSSLRSEDTAVYYCARDAYGRYFYDVWGQGTLVTVSS VL: DIVMTQSPDSLAVSLGERATINCKSSQSLLNARTGKNYLAWYQQKPGQPPKLLIYWASTRESGVPDRFSGSGSGTDFTLTISSLQAEDVAVYYCKQSYSLRTFGGGTKVEIK",
    "GROUP": "False"
  },
  {
    "BINDER": "Antibody No. A001 (ADI-26906) Fab (Fab, V domains shown, Fab by papain digestion of the IgG1) VH: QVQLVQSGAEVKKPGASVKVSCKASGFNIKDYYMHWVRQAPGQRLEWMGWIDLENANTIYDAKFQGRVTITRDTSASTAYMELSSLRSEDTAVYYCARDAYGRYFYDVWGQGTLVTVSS VL: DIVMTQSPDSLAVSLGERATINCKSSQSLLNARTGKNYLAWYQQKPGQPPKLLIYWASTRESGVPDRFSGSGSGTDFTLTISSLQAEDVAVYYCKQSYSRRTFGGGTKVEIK",
    "GROUP": "True"
  },
  {
    "BINDER": "Antibody No. V019 (ADI-76362) Fab (Fab, V domains shown, Fab by papain digestion of the IgG1) VH: QVQLVQSGAEVKKPGASVKVSCKASGFNIKDYYMHWVRQAPGQRLEWMGWIDLEEGDTIYDAKFQGRVTITRDTSASTAYMELSSLRSEDTAVYYCARDAYGRYFYDVWGQGTLVTVSS VL: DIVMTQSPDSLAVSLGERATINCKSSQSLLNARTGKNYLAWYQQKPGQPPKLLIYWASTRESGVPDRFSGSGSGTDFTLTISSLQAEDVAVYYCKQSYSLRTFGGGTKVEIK",
    "GROUP": "False"
  },
  {
    "BINDER": "Antibody No. V014 (ADI-76357) Fab (Fab, V domains shown, Fab by papain digestion of the IgG1) VH: QVQLVQSGAEVKKPGASVKVSCKASGFDIKDYYMHWVRQAPGQRLEWMGWIDLENANTIYDAKFQGRVTITRDTSASTAYMELSSLRSEDTAVYYCARDQYGRYFYDVWGQGTLVTVSS VL: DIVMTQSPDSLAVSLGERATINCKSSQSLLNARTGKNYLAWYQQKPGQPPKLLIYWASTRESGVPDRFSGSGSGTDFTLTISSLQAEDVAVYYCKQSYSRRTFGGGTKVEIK",
    "GROUP": "False"
  },
  {
    "BINDER": "Antibody No. V010 (ADI-70327) Fab (Fab, V domains shown, Fab by papain digestion of the IgG1) VH: QVQLVQSGAEVKKPGASVKVSCKASGFDIKDYYMHWVRQAPGQRLEWIGWIELENDDTVYDAKFQGRVTITRDTSASTAYMELSSLRSEDTAVYYCARDAYGRYFYDVWGQGTLVTVSS VL: DIVMSQSPDSLAVSLGERATINCKSSQSLLNARTGKNYLAWYQQKPGQPPKLLIYWASTRSSGVPDRFSGSGSGTDFTLTISSLQAEDVAVYYCVQSYFRRTFGGGTKVEIK",
    "GROUP": "True"
  }
]

Dear reviewer, please state whether Antibody No. V007 (ADI-67450) Fab (Fab, V domains shown, Fab by papain digestion of the IgG1) VH: QVQLVQSGAEVKKPGASVKVSCKASGFNIDDYYMHWVRQAPGQRLEWMGWIDLENANTIDDAKFQGRVTITRDTSASTAYMELSSLRSEDTAVYYCARDAYGRYFYDVWGQGTLVTVSS VL: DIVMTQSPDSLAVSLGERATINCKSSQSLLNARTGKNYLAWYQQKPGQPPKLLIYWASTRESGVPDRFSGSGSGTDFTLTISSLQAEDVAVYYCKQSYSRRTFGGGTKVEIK has Kd strictly beneath 9 nM.
True
